Recorded values, source patent US6291532A.

System: potassium channels
PROCEDURE_DETAILS: IC50 of the compounds for their effect on the potassium channels
Format: biochemical
TEST_SETTINGS: summary in words of the table of Example 1
PROPERTY_MEASURED: opening effect for potassium channels (in words)

# example entries with known answers
> print(dat)
                                   compound                  observed
1  CC(O)(C(=O)Nc1ccc(C#N)c(C(F)(F)F)c1)c1ccccc1 (stereo not shown)  excellent opening effect
2  CC(O)(C(=O)Nc1ccc(C#N)cc1)C(F)(F)F (stereo not shown) [G, reference compound]       poor opening effect
3  CC(O)(C(=O)Nc1ccc(Cl)c(Cl)c1)C(F)(F)F (stereo not shown)  excellent opening effect
4  CC(O)(C(=O)Nc1ccc(C#N)c(C(F)(F)F)c1)C(F)(F)F (stereo not shown)  excellent opening effect
5  CC(O)(C(=O)Nc1ccc(C#N)c(Cl)c1)C(F)(F)F (stereo not shown)  excellent opening effect

Entry CC(O)(C(=O)Nc1ccc(C#N)c(C#N)c1)C(F)(F)F (stereo not shown) : reported opening effect for potassium channels (in words) = ?
excellent opening effect

Same again, this time with CC(O)(C(=O)Nc1ccc([N+](=O)[O-])c(C(F)(F)F)c1)C(F)(F)F (stereo not shown) [F, reference compound]
poor opening effect

====

SYSTEM: androgen receptors (Rattus norvegicus, UniProt P15207)
Construct: from tissue; host or cells: rat ventral prostate cytosol, inferred from the cited method
Sequence (P15207 whole entry S389L): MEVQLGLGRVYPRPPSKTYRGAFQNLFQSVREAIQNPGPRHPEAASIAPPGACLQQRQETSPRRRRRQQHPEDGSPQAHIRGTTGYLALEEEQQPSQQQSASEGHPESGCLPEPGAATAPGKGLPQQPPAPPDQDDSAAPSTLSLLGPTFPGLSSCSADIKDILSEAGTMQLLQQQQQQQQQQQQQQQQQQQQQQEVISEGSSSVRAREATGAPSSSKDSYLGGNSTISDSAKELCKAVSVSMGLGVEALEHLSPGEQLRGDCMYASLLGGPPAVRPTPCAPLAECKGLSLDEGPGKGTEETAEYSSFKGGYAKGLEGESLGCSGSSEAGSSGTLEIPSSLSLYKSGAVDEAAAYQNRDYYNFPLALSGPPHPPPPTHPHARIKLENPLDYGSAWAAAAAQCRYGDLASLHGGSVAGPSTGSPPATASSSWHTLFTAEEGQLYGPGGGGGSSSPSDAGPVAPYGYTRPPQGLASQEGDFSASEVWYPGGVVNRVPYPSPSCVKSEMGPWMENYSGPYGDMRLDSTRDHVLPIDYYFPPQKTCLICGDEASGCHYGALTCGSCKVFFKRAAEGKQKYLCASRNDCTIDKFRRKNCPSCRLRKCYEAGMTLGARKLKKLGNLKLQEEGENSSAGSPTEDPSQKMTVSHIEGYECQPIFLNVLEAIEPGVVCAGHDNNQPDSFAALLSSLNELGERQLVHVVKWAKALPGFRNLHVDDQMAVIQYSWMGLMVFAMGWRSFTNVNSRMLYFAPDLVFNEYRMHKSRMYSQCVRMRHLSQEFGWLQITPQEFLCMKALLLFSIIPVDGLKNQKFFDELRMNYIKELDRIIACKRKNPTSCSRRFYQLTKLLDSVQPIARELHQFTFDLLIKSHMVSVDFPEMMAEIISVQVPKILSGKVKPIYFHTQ
PROCEDURE_DETAILS: IC50 of the compounds for their effect on the androgen receptors
Format: binding
PROPERTY_MEASURED: pIC50
The read-out pIC50 is expressed as -log10 of concentration in moles per litre.

Previously resolved entries follow.
> print(dat)
                                   molecule  observed
1  CC(O)(C(=O)Nc1ccc(C#N)c(Cl)c1)C(F)(F)F (stereo not shown)      6.30
2  CC(O)(C(=O)Nc1ccc(C#N)c(C(F)(F)F)c1)c1ccccc1 (stereo not shown)      5.52
3  CC(O)(C(=O)Nc1ccc(C#N)c(C(F)(F)F)c1)C(F)(F)F (stereo not shown)      6.00

Form: Entry = CC(O)(C(=O)Nc1ccc(C#N)c(C#N)c1)C(F)(F)F (stereo not shown) | System = androgen receptors (Rattus norvegicus, UniProt P15207) | pIC50 = ____
5.00
